B1: HDV Ribozyme (parent)
chain: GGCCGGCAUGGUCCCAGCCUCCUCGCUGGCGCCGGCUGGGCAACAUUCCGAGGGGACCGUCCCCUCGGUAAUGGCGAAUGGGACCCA

variants of: B1; assay: self-cleavage, relative activity (ratio to wild type); higher = more cleavage; co-transcriptional
Listing of recorded self-cleavage by entry.
measurement-name: self-cleavage

- A42U G67U: 0.346
- G50A: 0.98
- G53U A56C: 0.831
- C26G G29C: 0.0504
- C63U C75U: 0.324
- A42C G52U: 0.282
